Assay: migration of stabiliser from PVC bottles into water at 50° C.
Format: physicochemical
Details: water 50° C.; 0.15 pct; 10 days
# Migration per entry

Worked cases, answers included:
{"MOLECULE": "CCCCCCCCCCCCCCCCCCOC(=O)C1=C(C)NC(C)=C(C(=O)OCCCCCCCCCCCCCCCCCC)C1 [L.28599]", "Migration": "< 5 µg/L"}
{"MOLECULE": "CCCCCCCCCCCCCCOC(=O)C1=C(C)NC(C)=C(C(=O)OCCCCCCCCCCCCCC)C1 [L.28590]", "Migration": "< 5 µg/L"}

Note down Migration recorded for CCCCCCCCCCCCOC(=O)C1=C(C)NC(C)=C(C(=O)OCCCCCCCCCCCC)C1 [L.28507]
< 5 µg/L
